molecular target: α1d-AR (Homo sapiens, UniProt P25100); construct: expressed in transfected cells; host or cells: COS-7 cells (membranes); experiment: α1-Adrenergic receptor radio-ligand binding assay, α1d subtype; details: 125I-HEAT, membranes of COS-7 cells transfected with α1d subtype, rt 1 hr; read-out: Receptor Binding, Ki α1d-AR
Sequence (P25100 whole entry): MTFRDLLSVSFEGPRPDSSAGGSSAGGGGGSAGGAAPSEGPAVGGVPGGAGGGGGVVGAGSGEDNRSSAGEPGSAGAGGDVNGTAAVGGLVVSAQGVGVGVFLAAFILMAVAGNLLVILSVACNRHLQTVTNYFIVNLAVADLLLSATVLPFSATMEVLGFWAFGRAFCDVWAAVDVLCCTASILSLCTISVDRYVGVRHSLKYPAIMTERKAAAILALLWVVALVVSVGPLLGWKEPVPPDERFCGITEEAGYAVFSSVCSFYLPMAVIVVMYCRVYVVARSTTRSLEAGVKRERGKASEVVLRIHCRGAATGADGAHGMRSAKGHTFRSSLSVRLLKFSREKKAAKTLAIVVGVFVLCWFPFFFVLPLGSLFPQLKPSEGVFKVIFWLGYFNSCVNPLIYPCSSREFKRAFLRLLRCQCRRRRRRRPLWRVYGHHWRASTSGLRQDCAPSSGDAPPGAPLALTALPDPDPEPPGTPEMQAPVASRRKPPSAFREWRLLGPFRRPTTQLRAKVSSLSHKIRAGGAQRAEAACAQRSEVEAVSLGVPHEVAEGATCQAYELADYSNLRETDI
measurement-type: Ki (µM)
Answers are plain numbers, in µM.

Past entries and their recorded results:
COc1ccc(Cl)cc1S(=O)(=O)N[C@H]1CC[C@H](N2CCC(c3ccccc3OCC(F)(F)F)CC2)CC1: 0.0359
O=S(=O)(N[C@H]1CC[C@@H](N2CCC(c3ccccc3OCC(F)(F)F)CC2)CC1)c1ccc(OC(F)F)cc1: 0.0027
COc1ccc(S(=O)(=O)N[C@H]2CC[C@H](N3CCC(c4ccccc4OCCF)CC3)CC2)cc1OC: 0.0486

# next molecule below
QUERY: Could you please provide reported Ki for O=S(=O)(N[C@H]1CC[C@H](N2CCC(c3ccccc3OC3CC3)CC2)CC1)c1cc(Cl)ccc1F ? Thanks!
RESULT: 0.032

* * *

target: α1b-AR (Homo sapiens, UniProt P35368); construct: expressed in transfected cells; host or cells: COS-7 cells (membranes); assay: α1-Adrenergic receptor radio-ligand binding assay, α1b subtype; details: 125I-HEAT, membranes of COS-7 cells transfected with α1b subtype, rt 1 hr; read-out: Receptor Binding, Ki α1b-AR
Sequence (P35368 whole entry): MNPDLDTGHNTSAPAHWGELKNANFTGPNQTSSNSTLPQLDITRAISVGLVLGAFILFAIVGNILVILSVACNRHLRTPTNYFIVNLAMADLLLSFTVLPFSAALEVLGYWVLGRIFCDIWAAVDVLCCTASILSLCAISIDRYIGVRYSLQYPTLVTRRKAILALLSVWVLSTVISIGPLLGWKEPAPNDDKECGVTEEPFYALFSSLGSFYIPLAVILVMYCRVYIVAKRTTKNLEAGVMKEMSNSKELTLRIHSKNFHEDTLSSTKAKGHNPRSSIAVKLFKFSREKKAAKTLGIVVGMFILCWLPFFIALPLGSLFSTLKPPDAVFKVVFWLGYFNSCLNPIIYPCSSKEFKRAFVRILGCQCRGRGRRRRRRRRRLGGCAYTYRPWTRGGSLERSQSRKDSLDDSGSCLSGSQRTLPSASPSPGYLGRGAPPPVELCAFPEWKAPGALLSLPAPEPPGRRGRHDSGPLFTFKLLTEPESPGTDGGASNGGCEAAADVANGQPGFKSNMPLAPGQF
measurement-type: log10 Ki (log10 of the value in µM)
All values: base-10 log of Ki in µM.

In the examples that follow, each entry is paired with its recorded log10 Ki.
O=S(=O)(N[C@H]1CC[C@H](N2CCC(c3ccccc3OC3CC3)CC2)CC1)c1cc(Cl)ccc1F: -0.47
O=S(=O)(N[C@H]1CC[C@@H](N2CCC(c3ccccc3OCC(F)(F)F)CC2)CC1)c1ccc(OC(F)F)cc1: -1.12
COc1ccc(S(=O)(=O)N[C@H]2CC[C@H](N3CCC(c4cc(F)ccc4OC(C)C)CC3)CC2)cc1OC: 0.17
O=S(=O)(N[C@H]1CC[C@@H](N2CCC(c3ccccc3OCC(F)(F)F)CC2)CC1)c1cccc(OC(F)F)c1: -0.58
COc1ccc(S(=O)(=O)N[C@H]2CC[C@@H](N3CCC(c4cc(F)ccc4OC(C)C)CC3)CC2)cc1OC: -0.52

Hello, I would appreciate it if you could give log10 Ki for each entry below.
1. COc1ccc(Cl)cc1S(=O)(=O)N[C@H]1CC[C@@H](N2CCC(c3ccccc3OC3CC3)CC2)CC1
2. COc1ccc(Cl)cc1S(=O)(=O)N[C@H]1CC[C@H](N2CCC(c3ccccc3OCC(F)(F)F)CC2)CC1
3. O=S(=O)(N[C@H]1CC[C@H](N2CCC(c3ccccc3OCC(F)(F)F)CC2)CC1)c1cccc(OC(F)F)c1

RESULT:
[-1.09, -0.15, -0.45]

* * *

Counter-ions that a name gives are not always drawn.
measurement-type: melting point

O=S(=O)(N[C@H]1CC[C@H](N2CCC(c3ccccc3OCC(F)(F)F)CC2)CC1)c1ccc2c(c1)OCCO2: 146 °C
COc1ccc(S(=O)(=O)N[C@H]2CC[C@H](N3CCC(c4ccccc4OCCF)CC3)CC2)cc1OC: 142 °C
O=S(=O)(N[C@H]1CC[C@H](N2CCC(c3ccccc3OCC(F)(F)F)CC2)CC1)c1ccc(OC(F)F)cc1: 155 °C
O=S(=O)(N[C@H]1CC[C@@H](N2CCC(c3ccccc3OCC(F)(F)F)CC2)CC1)c1ccc2c(c1)OCCO2: 190 °C
O=S(=O)(N[C@H]1CC[C@@H](N2CCC(c3ccccc3OCC(F)(F)F)CC2)CC1)c1cc(Cl)ccc1F: 204 °C
O=S(=O)(N[C@H]1CC[C@H](N2CCC(c3ccccc3OCC(F)(F)F)CC2)CC1)c1cccc(OC(F)F)c1: 169 °C

For every record below, what is its melting point?
1. COc1ccc(S(=O)(=O)N[C@H]2CC[C@@H](N3CCC(c4ccccc4OCCF)CC3)CC2)cc1OC
2. O=S(=O)(N[C@H]1CC[C@H](N2CCC(c3ccccc3OCC(F)(F)F)CC2)CC1)c1cc(Cl)ccc1F
3. COc1ccc(S(=O)(=O)N[C@H]2CC[C@@H](N3CCC(c4ccccc4OCC(F)(F)F)CC3)CC2)cc1OC (as salt: fumarate)
4. COc1ccc(S(=O)(=O)N[C@H]2CC[C@H](N3CCC(c4ccccc4OCC(F)F)CC3)CC2)cc1OC
5. COc1ccc(S(=O)(=O)N[C@H]2CC[C@@H](N3CCC(c4ccccc4OC(C)C)CC3)CC2)cc1OC (as salt: fumarate)

RESULT:
["225 °C", "227 °C", "201 °C (dec.)", "197 °C", "221 °C"]
